The measurements presented in this section are drawn from ChEMBL document CHEMBL3301562.

Record form. Attribute: IC50. Fill in for each entry.
Target: Lysine--tRNA ligase (Plasmodium falciparum (isolate 3D7), UniProt Q8IDJ8)
Sequence (Q8IDJ8 whole entry): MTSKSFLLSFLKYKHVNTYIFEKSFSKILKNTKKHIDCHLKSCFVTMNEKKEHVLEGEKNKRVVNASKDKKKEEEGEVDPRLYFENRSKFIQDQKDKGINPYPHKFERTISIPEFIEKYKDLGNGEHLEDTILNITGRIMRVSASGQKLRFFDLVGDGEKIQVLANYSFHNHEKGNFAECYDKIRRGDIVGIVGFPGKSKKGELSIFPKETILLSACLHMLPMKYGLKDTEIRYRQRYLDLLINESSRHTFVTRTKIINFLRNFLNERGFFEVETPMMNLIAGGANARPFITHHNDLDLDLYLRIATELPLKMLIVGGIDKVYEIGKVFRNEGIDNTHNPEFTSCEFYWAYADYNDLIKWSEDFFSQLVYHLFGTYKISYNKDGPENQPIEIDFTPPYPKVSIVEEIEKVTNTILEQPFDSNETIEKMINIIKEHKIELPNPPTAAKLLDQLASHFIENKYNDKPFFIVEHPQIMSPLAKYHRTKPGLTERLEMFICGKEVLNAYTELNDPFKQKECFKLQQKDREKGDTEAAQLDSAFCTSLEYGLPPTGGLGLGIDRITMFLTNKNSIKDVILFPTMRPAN
Assay: MMV: KRS recombinant Plasmodium falciparum Lysyl-tRNA-synthetase, assay with yeast tRNA, ATP, and lysine and 3 uM MMV malaria box compound, assay read out with kinase glo as % inhibition.

Which IC50 reading was recorded for the compound `CN1c2ccccc2N(C)C1c1ccc2c(c1)OCO2` ? > 2500 nM

Which IC50 reading was recorded for the compound CCOC(=O)C1=C(c2ccccc2)N=c2sc(=Cc3cc(C)n(-c4ccc(F)cc4)c3C)c(=O)n2C1c1cccc(OC)c1OC (configuration not stated) ? > 2500 nM

Which IC50 reading was recorded for the compound `c1ccc(/C2=N/c3ccccc3/N=C(/c3ccccc3)c3ccccc32)cc1` ? > 2500 nM

Which IC50 reading was recorded for the compound `Cc1ccccc1OCCSc1nc2ccc(NC(=O)c3ccccc3)cc2s1` ? > 2500 nM

Which IC50 reading was recorded for the compound COc1ccc(C(C)=O)cc1N1C(=O)C2C(C1=O)C1(c3ccccc3)C(=O)C2(c2ccccc2)C(c2ccc(C)cc2)=C1c1ccc(C)cc1 (configuration not stated) ? > 2500 nM

Which IC50 reading was recorded for the compound `O=C(Nc1ccc(Br)cc1)Nc1cccc(Cl)c1` ? > 2500 nM

Which IC50 reading was recorded for the compound `COc1cccc(NC(=O)Cn2c(C)c(C#N)c3ccccc32)c1` ? > 2500 nM

Which IC50 reading was recorded for the compound `O=C(Nc1ccc(F)c(Cl)c1)Nc1ccc(Cl)c(Cl)c1` ? > 2500 nM

Which IC50 reading was recorded for the compound Cc1sc(NC(=O)c2ccccc2)c(C(c2cccs2)N2CCN(c3ccccc3)CC2)c1C (configuration not stated) ? > 2500 nM

Which IC50 reading was recorded for the compound `Cc1[nH]c(-c2ccc(F)cc2)cc1C(=O)NC1CCN(Cc2ccccc2)CC1` ? > 2500 nM

Which IC50 reading was recorded for the compound `COc1cc(-c2nc(-c3ccccc3)c(-c3ccccc3)[nH]2)cc(OC)c1O` ? > 2500 nM

Which IC50 reading was recorded for the compound `N=c1n(CCN2CCCCC2)c2ccccc2n1CC(=O)c1ccc(Cl)c(Cl)c1` ? > 2500 nM

Which IC50 reading was recorded for the compound OC(CNC1CCCCC1)Cn1c2ccc(I)cc2c2cc(I)ccc21 (configuration not stated) ? > 2500 nM

Which IC50 reading was recorded for the compound CC1CN(C(=O)c2sc3ccccc3c2Cl)CC(C)O1 (configuration not stated) ? > 2500 nM

Which IC50 reading was recorded for the compound `CCCCNc1nc(NC(C)(C)C)nc(NC(C)(C)C)n1` ? > 2500 nM

Which IC50 reading was recorded for the compound `COc1ccc(C(=O)Nc2nonc2-c2ccc(OC)c(OC)c2)cc1Cl` ? > 2500 nM

Which IC50 reading was recorded for the compound `Clc1ccc2c(N3CCCC3)ccnc2c1` ? > 2500 nM

Which IC50 reading was recorded for the compound CCCN(CCC)CC(O)COc1ccccc1C(=O)Nc1ccccc1 (configuration not stated) ? > 2500 nM

Which IC50 reading was recorded for the compound `COc1cccc(Nc2nc(N)c3ccccc3n2)c1` ? > 2500 nM

Which IC50 reading was recorded for the compound `O=C(NC1CCN(Cc2ccccc2)CC1)c1cc(C(=O)NC2CCN(Cc3ccccc3)CC2)cc(C(=O)NC2CCN(Cc3ccccc3)CC2)c1` ? > 2500 nM

Which IC50 reading was recorded for the compound `C=CCc1c(C)nc2ccccc2c1O` ? > 2500 nM

Which IC50 reading was recorded for the compound `C[n+]1c2ccccc2nc2ccc(NCCO)cc21` ? > 2500 nM
